- Test system: Molt-4 (leukemia) cells
- assay_remarks: Cytotoxicity in Molt-4 cells (Example 2, selectivity)
- Assay type: cell-based
- condition_description: Homo sapiens, 24 h; Molt-4, one day incubation
pIC50: −log10 of the molar value.
Entries and their pIC50 values follow.
attribute_measured: pIC50

compound	val
CCCCCC1c2nc(NC(=O)Cc3cccs3)sc2CC1CC(=O)O (stereo not drawn)	4.30
CCCCCC1c2nc(-c3ccccc3)sc2CC1CC(=O)N1CCC(O)CC1 (stereo not drawn)	4.35

----------
- Tested on: CLL (PBL, chronic lymphocytic leukemia)
- assay_remarks: Cytotoxicity of B3 in CLL cells (Example 4)
- Format: cell-based
- condition_description: Homo sapiens, CLL cell, 24 hours, n=14
pIC50: −log10 of the molar value.

molecule	assayed_target	pIC50
CC/C=C\CC1C(=O)CCC1CCOC(=O)CC1CCC(=O)C1C/C=C\CC (stereo not shown)	CLL (PBL, chronic lymphocytic leukemia)	3.60

----------
- System: normal peripheral blood lymphocytes (PBL), +PHA/TPA
- assay_remarks: Cytotoxicity in normal PBL pre-incubated with PHA/TPA (Example 2)
- Type: cell-based
- condition_description: Homo sapiens, Lymphocyte, 24 h, one day incubation
IC50 for assorted molecules

molecule	assayed_target	cmp	IC50 / µM
CCCCCC1c2nc(NC(=O)Cc3cccs3)sc2CC1CC(=O)O (centres unmarked)	normal peripheral blood lymphocytes (PBL), +PHA/TPA	=	300
CC/C=C\CC1C(=O)CCC1CC(=O)OC (centres unmarked) [MJ, methyl jasmonate, reference compound]	normal peripheral blood lymphocytes (PBL), +PHA/TPA	>	500

----------
- Test system: B16
- assay_remarks: Cytotoxicity of B3 in B16 (Example 4)
- Type: cell-based
- condition_description: Mus musculus; B16, 24 hours, n=6
attribute_measured: IC50 (µM)

molecule	assayed_target	val
CC/C=C\CC1C(=O)CCC1CCOC(=O)CC1CCC(=O)C1C/C=C\CC (stereo not shown) [Compound B3]	B16	700

----------
pIC50: recorded values
- Tested on: Molt-4 cell line
- assay_remarks: Cytotoxicity of different batches of B3 towards Molt-4 (Example 5)
- Type: cell-based, Human
- condition_description: Homo sapiens, MOLT-4, Molt-4
pIC50: −log10 of the molar value.
attribute_measured: pIC50

molecule	attribute_measured	val
CC/C=C\CC1C(=O)CCC1CCOC(=O)CC1CCC(=O)C1C/C=C\CC (centres unmarked) [Compound B3]	pIC50	4.22
CC/C=C\CC1C(=O)CCC1CC(=O)OC (centres unmarked) [MJ, methyl jasmonate, reference compound]	pIC50	3.22

----------
- Tested on: Molt-4 cell line
- assay_remarks: Cytotoxicity of different batches of B3 towards Molt-4 (Example 5)
- Format: cell-based, Human
- condition_description: Molt-4; listed as B3 (IV)

compound	measurement_unit	IC50
CC/C=C\CC1C(=O)CCC1CCOC(=O)CC1CCC(=O)C1C/C=C\CC (stereo not shown)	µM	50
